tgt: Histone-lysine N-methyltransferase EHMT2 (Homo sapiens) (UniProt Q96KQ7)
Sequence (Q96KQ7 913-1193 limits assumed): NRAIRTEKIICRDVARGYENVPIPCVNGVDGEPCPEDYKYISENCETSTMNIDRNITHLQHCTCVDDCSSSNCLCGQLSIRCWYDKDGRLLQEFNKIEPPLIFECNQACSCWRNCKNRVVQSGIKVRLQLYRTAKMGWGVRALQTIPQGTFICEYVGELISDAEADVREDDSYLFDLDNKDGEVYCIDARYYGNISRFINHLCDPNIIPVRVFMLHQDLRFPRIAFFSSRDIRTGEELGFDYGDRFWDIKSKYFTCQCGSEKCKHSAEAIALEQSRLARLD
protocolDescription: qHTS Assay for Inhibitors of Histone Lysine Methyltransferase G9a; further: nearly all actives have a fitted effect of over 75% in size
protocolConditions: G9a H3K9 monomethylation, AlphaScreen, 2 h; series mostly up to 59 µM
Among all 350,000 compounds or so, about 31,000 (8.9%) were called active. Not shown: some 15% with an inconclusive outcome. The call rests on the fitted dose curve; in most records, active means well fitted inhibition curve with a large enough effect; inconclusive means small, poorly fitted or top-dose-only effect; inactive means no such curve, though single readings can be large or run the other way. Only a selection was taken, and actives are over-represented in it overall.
Just give me one of these, please: active, inactive

molecule=C/C(=C\C(=O)c1ccccc1)Nc1cccc(O)c1 label=active
molecule=CCCCn1c(=O)c2oc3ccccc3c2n(CC(=O)Nc2ccccc2OC)c1=O label=inactive

// query Record request — test call for "Cc1ccc(C(=O)NC(=S)NCCN2CCOCC2)cc1"
// result inactive

// query Can you look up the reported call for "CCc1ccccc1NC(=O)c1ccc(F)c(S(=O)(=O)NC2CCCCCC2)c1" for me?
// result inactive

// query How was "CSc1ccc(/C=N/N2CCN(Cc3ccccc3Cl)CC2)cc1" classified in this test?
// result active

// query Called result for "COC1=C(N2CCOCC2)C(=O)c2ccccc2C1=O"
// result active

// query Write down the call the test reported for this molecule. Item: "Cc1ccn2c(=O)c(NC(=O)c3cccc4ccccc34)c(C)nc2c1"
// result inactive

// query Name the outcome recorded for "COc1ccc(/C=C/C(=O)N2CCCC2)cc1OC" in the assay.
// result inactive

// query Entry "COc1ccc(-c2nn(CC(=O)NC3CCCC3)c3c2cnc2ccc(F)cc23)cc1" : call = ?
// result inactive

// query Any idea what this test logged for "CC(C)(C)c1cc(P(=O)(c2ccccc2)c2ccccc2)ccc1O" ?
// result inactive
